- TESTED ON: eukaryotic cytoplasmic ribosome
- METHOD NOTES: Eukaryotic in vitro translation inhibition, TNT T7 Quick Coupled Transcription/Translation System with luciferase plasmid
- Type: biochemical
- CONDITIONS: Table 4; read-out: Translation Inhibition IC50^Euk
Assign labels as follows, please: Condition met for IC50 below 50 µM; Condition not met for IC50 equal to or exceeding 50 µM.

compound="C[C@H](N)[C@H]1O[C@@H](O[C@@H]2C(O)[C@H](N)CC(N)[C@H]2O[C@H]2OC(CO)=CC(O)[C@@H]2N)C(O)[C@H]1O (stereo partly drawn)" class="Condition met"
compound="C[C@H](N)[C@H]1O[C@@H](OC2C(O)[C@H](N)CC(N)[C@H]2O[C@H]2OC(CO)[C@@H](O)C(O)C2N)C(O)C1O (stereo partly drawn) [NB118, reference compound]" class="Condition met"
compound="NC[C@H]1O[C@@H](OC2C(O)[C@H](N)CC(N)[C@H]2O[C@H]2OC(CO)[C@@H](O)C(O)C2N)C(O)C1O (stereo partly drawn) [NB30, reference compound]" class="Condition met"
compound="NC[C@H]1O[C@@H](O[C@@H]2C(O)[C@H](N)CC(N)[C@H]2O[C@H]2OC(CO)=CC(O)[C@@H]2N)C(O)[C@H]1O (stereo partly drawn)" class="Condition not met"
compound="N[C@H]1[C@@H](O[C@H]2[C@H](O)[C@@H](O)[C@H](N)C[C@@H]2N)O[C@H](CO)[C@@H](O)[C@@H]1O [Paro., paromamine, reference compound]" class="Condition not met"
compound=N[C@H]1[C@@H](O[C@H]2[C@H](O)[C@@H](O)[C@H](N)C[C@@H]2N)OC(CO)=C[C@@H]1O class="Condition not met"

###

- TESTED ON: eukaryotic cytoplasmic ribosome
- METHOD NOTES: Eukaryotic in vitro translation inhibition, TNT T7 Quick Coupled Transcription/Translation System with luciferase plasmid
- Format: biochemical
- CONDITIONS: Table 2; sulfate salts, concentrations refer to free amine form; read-out: Translation Inhibition IC50^Euk
pIC50: −log10 of the molar value.
ENDPOINT: pIC50

molecule=C[C@H](N)[C@H]1O[C@@H](O[C@@H]2[C@@H](O)[C@H](N)C[C@H](N)[C@H]2O[C@H]2O[C@H]([C@H](O)CO)[C@@H](O)[C@H](O)[C@H]2N)[C@@H](O)[C@H]1O readout_value=5.92
molecule=N[C@H]1[C@@H](O[C@H]2[C@H](O)[C@@H](O)[C@H](N)C[C@@H]2N)O[C@H]([C@@H](O)CO)[C@@H](O)[C@@H]1O readout_value=3.29
molecule=N[C@H]1[C@@H](O[C@H]2[C@H](O)[C@@H](O)[C@H](N)C[C@@H]2N)O[C@H]([C@H](O)CO)[C@@H](O)[C@@H]1O readout_value=3.92
molecule=NC[C@H]1O[C@@H](O[C@@H]2[C@@H](O)[C@H](N)C[C@H](N)[C@H]2O[C@H]2O[C@H]([C@H](O)CO)[C@@H](O)[C@H](O)[C@H]2N)[C@@H](O)[C@H]1O readout_value=5.12
molecule="CC(O)C1O[C@H](O[C@@H]2C(N)C[C@@H](N)C(O)C2O[C@@H]2O[C@H]([C@H](C)N)C(O)C2O)C(N)C(O)[C@@H]1O (single isomer, unassigned) [NB124, reference compound]" readout_value=5.82
